biological target: MATE1 (Homo sapiens); assay: Uptake ratio in MATE1-overexpressing HEK293 cells vs empty vector (2.5 μM, 1 min, HPLC-MS/MS); assay type: cell-based
Sequence (Q96FL8 whole entry): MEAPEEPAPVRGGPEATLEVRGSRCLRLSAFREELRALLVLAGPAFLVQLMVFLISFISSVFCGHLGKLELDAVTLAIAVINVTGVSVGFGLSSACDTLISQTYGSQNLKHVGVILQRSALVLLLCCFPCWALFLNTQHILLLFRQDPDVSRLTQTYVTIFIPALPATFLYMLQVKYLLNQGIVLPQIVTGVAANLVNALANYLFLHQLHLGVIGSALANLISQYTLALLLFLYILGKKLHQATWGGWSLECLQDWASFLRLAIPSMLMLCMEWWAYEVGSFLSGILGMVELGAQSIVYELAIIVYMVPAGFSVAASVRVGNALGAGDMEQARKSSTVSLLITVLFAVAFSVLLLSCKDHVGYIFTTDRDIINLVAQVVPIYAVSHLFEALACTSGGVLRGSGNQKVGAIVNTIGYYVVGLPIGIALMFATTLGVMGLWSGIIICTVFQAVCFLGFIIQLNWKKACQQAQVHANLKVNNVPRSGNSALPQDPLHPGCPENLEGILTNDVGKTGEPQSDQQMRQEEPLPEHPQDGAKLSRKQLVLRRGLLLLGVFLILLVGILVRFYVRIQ
Quantity kind: MATE1
The reply should be a number, written without any unit.

**Query** Please give measured MATE1 of the following entry: "CC(=O)O[C@H]1C[C@@H]2CC[C@@H]3[C@H](CC[C@@]4(C)[C@H]3C[C@H]([N+]3(C)CCCCC3)[C@@H]4OC(C)=O)[C@@]2(C)C[C@@H]1N1CCCCC1"
**Result** 8.32

**Query** Please give measured MATE1 of the following entry: "Cc1cc(C(C)(C)C)cc(C)c1CC1=NCCN1"
**Result** 1.55

**Query** Please give measured MATE1 of the following entry: "NCCc1c[nH]c2ccccc12"
**Result** 2.21

**Query** Please give measured MATE1 of the following entry: CCOc1ccccc1OCC1CNCCO1 (stereo not shown)
**Result** 1.12

From: paper PMC12207590
